Test system: Human immunodeficiency virus 1
experimentNotes: Antiviral activity against HIV-1 harboring RT K103N mutant infected in human MT4 cells assessed as protection against virus-induced cytopathic effect measured after 5 days by MTT assay
Format: functional, organism-based
conditionDetails: Human immunodeficiency virus 1, MT4, 120 h
Entries and their measured log10 EC50 follow.
// stored as log10 of EC50 expressed in nM

- molecule: "Cc1cc(C#N)cc(C)c1Oc1nc(Nc2ccc(-c3cn(Cc4ccc(C(F)(F)F)cc4)nn3)cc2)nc2ccsc12"
  measurement: 2.52
- molecule: "Cc1ccnc2c1NC(=O)c1cccnc1N2C1CC1 [NEVIRAPINE]"
  measurement: 3.69
- molecule: "Cc1cc(C#N)cc(C)c1Oc1nc(Nc2ccc(-c3cn(Cc4ccc(Cl)cc4)nn3)cc2)nc2ccsc12"
  measurement: 3.05

# get_value(readout= log10 EC50, system= Human immunodeficiency virus 1) for `Cc1cc(C#N)cc(C)c1Oc1nc(Nc2ccc(-c3cn(Cc4ccc(B(O)O)cc4)nn3)cc2)nc2ccsc12` 2.61

# get_value(readout= log10 EC50, system= Human immunodeficiency virus 1) for `Cc1cc(C#N)cc(C)c1Oc1nc(Nc2ccc(-c3cn(Cc4ccc(S(N)(=O)=O)cc4)nn3)cc2)nc2ccsc12` 1.60

# get_value(readout= log10 EC50, system= Human immunodeficiency virus 1) for `Cc1cc(C#N)cc(C)c1Oc1nc(Nc2ccc(-c3cn(CC(=O)Nc4ccc(C(F)(F)F)cc4)nn3)cc2)nc2ccsc12` 3.45

# get_value(readout= log10 EC50, system= Human immunodeficiency virus 1) for `Cc1cc(C#N)cc(C)c1Oc1nc(Nc2ccc(-c3cn(Cc4ccc(C(N)=O)cc4)nn3)cc2)nc2ccsc12` 1.90

# get_value(readout= log10 EC50, system= Human immunodeficiency virus 1) for `Cc1cc(C#N)cc(C)c1Oc1nc(Nc2ccc(-c3cn(S(=O)(=O)n4ccnc4)nn3)cc2)nc2ccsc12` 1.00

# get_value(readout= log10 EC50, system= Human immunodeficiency virus 1) for O=C1Nc2ccc(Cl)cc2[C@@](C#CC2CC2)(C(F)(F)F)O1 [EFAVIRENZ] 2.11

# get_value(readout= log10 EC50, system= Human immunodeficiency virus 1) for `Cc1cc(C#N)cc(C)c1Oc1nc(Nc2ccc(-c3cn(CCN4C(=O)c5ccccc5C4=O)nn3)cc2)nc2ccsc12` 3.32

# get_value(readout= log10 EC50, system= Human immunodeficiency virus 1) for `Cc1cc(C#N)cc(C)c1Oc1nc(Nc2ccc(-c3cn(-c4ccc5c(c4)OCO5)nn3)cc2)nc2ccsc12` 3.30

# get_value(readout= log10 EC50, system= Human immunodeficiency virus 1) for Cc1cc(C#N)cc(C)c1Oc1nc(Nc2ccc(C#N)cc2)nc(N)c1Br [ETRAVIRINE] 0.60

# get_value(readout= log10 EC50, system= Human immunodeficiency virus 1) for `Cc1cc(C#N)cc(C)c1Oc1nc(Nc2ccc(-c3cn(Cc4ccc(S(C)(=O)=O)cc4)nn3)cc2)nc2ccsc12` 1.78

# get_value(readout= log10 EC50, system= Human immunodeficiency virus 1) for `CCOC(=O)c1ccc(Cn2cc(-c3ccc(Nc4nc(Oc5c(C)cc(C#N)cc5C)c5sccc5n4)cc3)nn2)cc1` 2.93
